# TEST TARGET: UniProt O60603
# Sequence (O60603 whole entry): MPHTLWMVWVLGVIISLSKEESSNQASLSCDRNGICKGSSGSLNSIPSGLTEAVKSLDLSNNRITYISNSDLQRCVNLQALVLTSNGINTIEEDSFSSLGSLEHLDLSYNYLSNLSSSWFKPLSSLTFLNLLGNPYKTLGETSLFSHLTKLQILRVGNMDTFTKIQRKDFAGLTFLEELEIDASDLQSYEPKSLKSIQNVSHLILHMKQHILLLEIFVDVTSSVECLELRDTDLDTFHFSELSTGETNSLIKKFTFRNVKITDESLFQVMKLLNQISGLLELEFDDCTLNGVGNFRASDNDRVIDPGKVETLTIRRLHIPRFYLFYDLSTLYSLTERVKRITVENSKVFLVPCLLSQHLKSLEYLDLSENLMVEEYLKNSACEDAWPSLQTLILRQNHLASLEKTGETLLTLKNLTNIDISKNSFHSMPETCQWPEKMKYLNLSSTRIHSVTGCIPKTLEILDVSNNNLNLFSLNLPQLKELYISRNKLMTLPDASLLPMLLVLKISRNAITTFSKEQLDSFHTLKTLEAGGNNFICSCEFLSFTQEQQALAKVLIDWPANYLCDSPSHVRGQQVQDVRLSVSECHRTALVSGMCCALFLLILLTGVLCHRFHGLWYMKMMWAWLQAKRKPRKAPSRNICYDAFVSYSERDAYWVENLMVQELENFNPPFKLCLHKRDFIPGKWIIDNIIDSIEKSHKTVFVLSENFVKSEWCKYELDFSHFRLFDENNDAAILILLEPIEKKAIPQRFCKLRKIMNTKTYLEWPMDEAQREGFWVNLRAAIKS
# TEST DETAILS: Antagonist activity at human TLR2 expressed in HE293 cells co-transfected with pELAM by luciferase reporter gene assay
# Type: functional, cell-based, HEK293
Reported pIC50 values follow for various compounds
Quick note: pIC50 means taking -log10 of the concentration in moles per liter.

Recorded pIC50, per entry:
COMPOUND	pIC50
CCCCCCCCCCCCCCCCCCCC(=O)N[C@@H](COP(=O)(O)OCCNC(=O)[C@@H](NC(=O)Cc1c[nH]c2ccc(OCc3ccccc3)cc12)[C@@H](C)CC)C(=O)NCCC(O)CCCCCCCCCCCCC (some centres undefined)	6.62
CCCCCCCCCCCCCCCC(=O)N[C@@H](COP(=O)(O)OCCNC(=O)[C@@H](NC(=O)Cc1c[nH]c2ccc(-c3ccccc3)cc12)[C@@H](C)CC)C(=O)NCCCOC(=O)CCCCCCCCCCC	6.64
CCCCCCCCCCCCCC(=O)N[C@@H](COP(=O)(O)OCCNC(=O)[C@@H](NC(=O)Cc1ccc(O)cc1)[C@@H](C)C(=O)O)C(=O)NCCC(CCCCCCC)OC(=O)CCCCCCCCCCC (some centres undefined)	6.05

Exercise: State the recorded pIC50 for this entry: CCCCCCCCCCCCCCCCCCCC(=O)N[C@@H](COP(=O)(O)OCCNC(=O)[C@@H](NC(=O)Cc1c[nH]c2ccccc12)[C@@H](C)CC)C(=O)NCCC(O)CCCCCCCCCCCCC (some centres undefined)
Solution: 6.34

###

# TEST TARGET: Toll-like receptor 4 (Homo sapiens, UniProt O00206)
# Sequence (O00206 whole entry): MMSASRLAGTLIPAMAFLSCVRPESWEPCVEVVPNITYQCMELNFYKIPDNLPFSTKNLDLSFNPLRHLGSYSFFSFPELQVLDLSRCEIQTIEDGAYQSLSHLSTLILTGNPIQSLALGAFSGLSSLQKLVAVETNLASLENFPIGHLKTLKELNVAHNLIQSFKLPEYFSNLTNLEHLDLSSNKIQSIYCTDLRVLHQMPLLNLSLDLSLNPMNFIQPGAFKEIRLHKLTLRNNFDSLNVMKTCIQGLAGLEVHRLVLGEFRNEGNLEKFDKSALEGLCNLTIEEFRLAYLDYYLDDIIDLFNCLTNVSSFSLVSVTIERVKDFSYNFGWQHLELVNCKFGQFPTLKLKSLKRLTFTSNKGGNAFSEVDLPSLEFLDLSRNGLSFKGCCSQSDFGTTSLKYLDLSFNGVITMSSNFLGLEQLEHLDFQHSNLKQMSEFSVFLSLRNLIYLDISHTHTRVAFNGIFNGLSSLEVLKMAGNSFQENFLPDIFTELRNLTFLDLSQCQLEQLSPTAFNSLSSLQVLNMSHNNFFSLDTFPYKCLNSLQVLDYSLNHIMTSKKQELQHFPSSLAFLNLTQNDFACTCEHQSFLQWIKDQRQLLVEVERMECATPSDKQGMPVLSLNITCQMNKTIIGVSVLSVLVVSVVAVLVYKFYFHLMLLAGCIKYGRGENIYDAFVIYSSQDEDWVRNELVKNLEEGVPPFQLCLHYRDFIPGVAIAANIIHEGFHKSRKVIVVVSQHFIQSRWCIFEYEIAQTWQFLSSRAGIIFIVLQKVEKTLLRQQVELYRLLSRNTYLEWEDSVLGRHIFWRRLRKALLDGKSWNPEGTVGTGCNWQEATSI
# TEST DETAILS: Antagonist activity at TLR4 in human PBMC cells assessed as suppression of LPS-induced cytokine upregulation
# Type: functional, cell-based
EXPERIMENTAL READOUT: IC50 (µM)
Write it as a number; the unit µM goes unstated.

Exercise: State the recorded IC50 for this entry: `Nc1ccccc1Oc1ccc2c(N)nsc2c1`
Solution: 3

###

# TEST TARGET: Toll-like receptor 4 (Mus musculus)
# TEST DETAILS: Inhibition of mouse TLR4-mediated cytokine production in mouse macrophages
EXPERIMENTAL READOUT: pIC50
Quick note: pIC50 means taking -log10 of the concentration in moles per liter.

> print(dat)
                                   compound                          test.target  quantitative.result
1  CCOC(=O)C1=CCCCC1S(=O)(=O)Nc1ccc(F)cc1Cl (stereo unspecified)  Toll-like receptor 4 (Mus musculus)                 8.49
2  CCOC(=O)C1=CCCCC1S(=O)(=O)Nc1ccc(Cl)cc1F (stereo unspecified)  Toll-like receptor 4 (Mus musculus)                 6.80
3  CCOC(=O)C1=CCCCCC1S(=O)(=O)Nc1ccc(F)cc1Cl (stereo unspecified)  Toll-like receptor 4 (Mus musculus)                 6.62

// below: pIC50 requested for another compound
Exercise: State the recorded pIC50 for this entry: CCOC(=O)C1=CCCC1S(=O)(=O)Nc1ccc(F)cc1Cl (stereo unspecified)
Solution: 6.96

###

# TEST TARGET: UniProt:Q9NYK1
# Sequence (Q9NYK1 whole entry): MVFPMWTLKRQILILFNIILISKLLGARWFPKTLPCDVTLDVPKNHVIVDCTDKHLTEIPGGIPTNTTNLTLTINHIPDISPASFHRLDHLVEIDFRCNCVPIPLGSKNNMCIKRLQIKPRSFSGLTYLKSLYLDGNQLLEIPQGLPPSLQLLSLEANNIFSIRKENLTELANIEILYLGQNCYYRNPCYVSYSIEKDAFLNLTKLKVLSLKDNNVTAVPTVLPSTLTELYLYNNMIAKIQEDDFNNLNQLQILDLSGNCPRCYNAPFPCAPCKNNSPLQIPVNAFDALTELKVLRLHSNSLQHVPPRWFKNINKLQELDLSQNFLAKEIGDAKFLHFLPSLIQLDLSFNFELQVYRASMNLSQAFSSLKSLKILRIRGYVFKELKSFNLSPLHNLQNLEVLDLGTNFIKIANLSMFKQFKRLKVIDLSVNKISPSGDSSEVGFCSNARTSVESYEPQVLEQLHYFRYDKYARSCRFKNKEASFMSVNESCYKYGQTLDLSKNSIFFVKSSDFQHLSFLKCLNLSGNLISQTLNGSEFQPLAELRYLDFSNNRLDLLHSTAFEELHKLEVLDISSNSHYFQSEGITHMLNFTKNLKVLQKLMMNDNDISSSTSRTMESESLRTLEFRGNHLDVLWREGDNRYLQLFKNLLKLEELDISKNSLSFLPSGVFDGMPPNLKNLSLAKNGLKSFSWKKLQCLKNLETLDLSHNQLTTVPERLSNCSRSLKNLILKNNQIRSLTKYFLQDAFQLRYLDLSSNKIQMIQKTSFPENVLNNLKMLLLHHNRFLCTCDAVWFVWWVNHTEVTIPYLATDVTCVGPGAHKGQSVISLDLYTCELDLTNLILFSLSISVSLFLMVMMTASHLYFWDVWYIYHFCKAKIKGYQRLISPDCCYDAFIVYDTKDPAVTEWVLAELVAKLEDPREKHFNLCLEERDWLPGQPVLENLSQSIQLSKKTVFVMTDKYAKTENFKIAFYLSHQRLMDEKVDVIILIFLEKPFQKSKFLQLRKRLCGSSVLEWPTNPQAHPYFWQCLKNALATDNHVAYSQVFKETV
# TEST DETAILS: Agonist activity at human TLR7 by luciferase reporter gene assay
# Format: functional
EXPERIMENTAL READOUT: pEC50
Quick note: pEC50 means taking -log10 of the concentration in moles per liter.

> print(dat)
                                     smiles  quantitative.result
1   COCCOc1nc(N)c2nc(NCCCO)n(Cc3ccccc3)c2n1                 5.49
2  COCCOc1nc(N)c2nc(S)n(Cc3cccc(CP(C)(=O)O)c3)c2n1                 8.00
3  Cc1ccc(Cn2c(=O)[nH]c3c(N)nc(-c4nccs4)cc32)cn1                 7.00
4      COCCOc1nc(N)c2nc(NN)n(Cc3ccccc3)c2n1                 6.10
5  Nc1nc(NCc2ccccc2)nc2c1[nH]c(=O)n2Cc1cccc(CP(=O)(O)O)c1                 8.00

// below: pEC50 requested for another compound
Exercise: State the recorded pEC50 for this entry: `CCNc1nc2c(N)nc(OCCOC)nc2n1Cc1ccccc1`
Solution: 5.36

###

# TEST TARGET: Toll-like receptor 8 (Homo sapiens)
# Sequence (Q9NR97 whole entry): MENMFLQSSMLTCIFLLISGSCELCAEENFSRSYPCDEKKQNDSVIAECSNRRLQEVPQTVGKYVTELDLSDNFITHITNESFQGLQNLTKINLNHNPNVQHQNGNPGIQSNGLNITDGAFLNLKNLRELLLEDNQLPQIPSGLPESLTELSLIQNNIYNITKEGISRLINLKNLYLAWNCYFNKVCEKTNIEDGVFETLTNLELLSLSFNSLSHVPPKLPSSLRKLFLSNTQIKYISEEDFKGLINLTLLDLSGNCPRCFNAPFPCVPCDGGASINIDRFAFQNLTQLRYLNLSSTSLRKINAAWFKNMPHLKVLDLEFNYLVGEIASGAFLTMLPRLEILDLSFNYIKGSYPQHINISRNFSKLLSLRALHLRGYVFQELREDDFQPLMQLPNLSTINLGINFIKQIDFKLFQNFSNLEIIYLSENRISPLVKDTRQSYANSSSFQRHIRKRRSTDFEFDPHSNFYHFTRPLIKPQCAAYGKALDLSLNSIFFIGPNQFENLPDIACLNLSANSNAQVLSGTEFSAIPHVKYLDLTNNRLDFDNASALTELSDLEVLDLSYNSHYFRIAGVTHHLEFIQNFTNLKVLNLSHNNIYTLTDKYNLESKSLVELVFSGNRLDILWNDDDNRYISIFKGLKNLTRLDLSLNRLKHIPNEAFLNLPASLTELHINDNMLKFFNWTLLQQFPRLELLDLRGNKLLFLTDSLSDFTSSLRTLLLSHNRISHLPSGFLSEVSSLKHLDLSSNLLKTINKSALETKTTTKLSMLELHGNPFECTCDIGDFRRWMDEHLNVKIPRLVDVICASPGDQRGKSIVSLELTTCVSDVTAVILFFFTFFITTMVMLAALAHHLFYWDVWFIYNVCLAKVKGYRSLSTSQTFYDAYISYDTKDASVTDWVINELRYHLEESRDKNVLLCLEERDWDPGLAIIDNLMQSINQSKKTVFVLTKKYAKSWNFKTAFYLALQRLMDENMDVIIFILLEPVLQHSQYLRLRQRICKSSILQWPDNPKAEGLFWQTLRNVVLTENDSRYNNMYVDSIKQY
# TEST DETAILS: Agonist activity at human TLR8 expressed in HEK cells by NF-kappaB luciferase reporter gene assay
# Format: functional, cell-based, HEK293
pEC50: −log10 of the molar value.
EXPERIMENTAL READOUT: pEC50

> print(dat)
                        smiles                          test.target  experimental.readout  result
1  CCOC(=O)N1CC(N)=Nc2ccccc2C1  Toll-like receptor 8 (Homo sapiens)                 pEC50  > 4.00

// below: pEC50 requested for another compound
Exercise: State the recorded pEC50 for this entry: `CCN(CC)C(=O)N1CC(N)=Nc2ccccc2C1`
Solution: > 4.00

###

# TEST TARGET: Toll-like receptor 7 (Homo sapiens, UniProt Q9NYK1)
# TEST DETAILS: Agonist activity at TLR7 in human PBMC cells assessed as stimulation of interferon release
# Format: functional, cell-based
Reported pEC50 values follow for various molecules
Quick note: pEC50 means taking -log10 of the concentration in moles per liter.

> print(dat)
                                     smiles  quantitative.result
1  Nc1nc(NCc2ccccc2)nc2c1[nH]c(=O)n2Cc1cccc(CP(=O)(O)O)c1                 8.00

// below: pEC50 requested for another molecule
Exercise: API: value(readout= pEC50, system= Toll-like receptor 7 (Homo sapiens, UniProt Q9NYK1), query= `COCCOc1nc(N)c2nc(S)n(Cc3cccc(CP(C)(=O)O)c3)c2n1` )
Solution: 8.00

###

Reported EC50 values follow for various compounds
# TEST TARGET: Toll-like receptor 7 (Homo sapiens)
# TEST DETAILS: Agonist activity at human TLR7 by luciferase reporter gene assay
# Assay type: functional

> print(dat)
                                     smiles  experimental.readout      result
1  COCCOc1nc(N)c2[nH]c(=O)n(CCCN(Cc3ccc(CC(=O)OC)cc3)C(=O)CCC(=O)OC(C)(C)C)c2n1                  EC50     < 20 nM
2       COCCOc1nc(N)c2nc(N)n(Cc3ccccc3)c2n1                  EC50  > 10000 nM

// below: EC50 requested for another compound
Exercise: State the recorded EC50 for this entry: `COCCOc1nc(N)c2[nH]c(=O)n(CCCN(Cc3ccc(CC(=O)OC)cc3)C(=O)CN3CCN(C)CC3)c2n1`
Solution: < 20 nM
